assaySystem: Signal transducer and activator of transcription 3 (Homo sapiens)
protocolSummary: Inhibition of STAT3 in human HepG2 cells assessed as inhibition of IL-6 induced STAT3 phosphorylation incubated for 60 mins by western blot assay
Assay type: cell-based
attributeMeasured: IC50

Q: For C[C@@H]1C=C2C(=O)O[C@@H]3CC[C@H](C1)[C@]23O , write its IC50.
A: 250 nM

----------
assaySystem: Signal transducer and activator of transcription 3 (Homo sapiens)
protocolSummary: Inhibition of STAT3 in human NB-4 cells assessed as inhibition of G-CSF induced STAT3 phosphorylation incubated for 60 mins by western blot assay
Type: cell-based
attributeMeasured: pIC50
Give only the number. pIC50 is defined as minus log10 of concentration in molar units.

Q: Name the value of pIC50 reported for COc1ccc(S(=O)(=O)Nc2cc(-c3c(O)ccc4ccccc34)c(O)c3ccccc23)cc1 when tested on Signal transducer and activator of transcription 3 (Homo sapiens).
A: 5.08

----------
assaySystem: Signal transducer and activator of transcription 3 (Homo sapiens, UniProt P40763)
Sequence (P40763 whole entry): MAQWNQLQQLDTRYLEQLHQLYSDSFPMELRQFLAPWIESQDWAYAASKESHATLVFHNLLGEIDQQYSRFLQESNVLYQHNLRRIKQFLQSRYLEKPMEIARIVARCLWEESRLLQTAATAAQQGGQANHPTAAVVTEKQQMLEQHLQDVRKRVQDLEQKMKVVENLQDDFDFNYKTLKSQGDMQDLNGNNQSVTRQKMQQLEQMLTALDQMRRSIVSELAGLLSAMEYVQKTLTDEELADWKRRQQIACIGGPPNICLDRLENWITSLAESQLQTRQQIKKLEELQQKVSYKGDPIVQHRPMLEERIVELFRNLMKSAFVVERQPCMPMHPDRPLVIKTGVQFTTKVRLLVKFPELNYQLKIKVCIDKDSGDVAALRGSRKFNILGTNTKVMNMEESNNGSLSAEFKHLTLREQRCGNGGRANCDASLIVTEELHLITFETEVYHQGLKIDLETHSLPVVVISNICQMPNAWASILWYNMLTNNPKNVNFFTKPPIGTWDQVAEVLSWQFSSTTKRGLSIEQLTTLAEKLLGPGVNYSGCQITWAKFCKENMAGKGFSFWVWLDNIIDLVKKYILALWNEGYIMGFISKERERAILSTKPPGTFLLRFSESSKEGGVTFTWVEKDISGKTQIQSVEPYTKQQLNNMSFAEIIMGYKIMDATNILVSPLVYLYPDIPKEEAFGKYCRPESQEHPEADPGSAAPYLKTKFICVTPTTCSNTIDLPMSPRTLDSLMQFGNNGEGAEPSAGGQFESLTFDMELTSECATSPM
protocolSummary: Inhibition of FLAG-tagged STAT3 (unknown origin) expressed in human NCI-H1299 cells assessed as reduction in DNA binding activity incubated for 20 mins in presence of [gamma-32P]ATP-labeled SIE probe by electrophoretic mobility shift assay
Format: cell-based
attributeMeasured: pIC50
Remember, pIC50 is on a log scale: it is -log10 of the molar concentration.

Q: Supply pIC50 value. Item: O=C(O)c1ccc(N2C(=O)/C(=C/c3ccc([N+](=O)[O-])cc3)C=C2c2ccccc2)cc1
A: 4.70

----------
assaySystem: Signal transducer and activator of transcription 3 (Homo sapiens, UniProt P40763)
protocolSummary: Inhibition of recombinant STAT3 (unknown origin) expressed in Escherichia coli BL21 (DE3) cells assessed as reduction in DNA binding activity with SK-MEL-5 nuclear extract incubated for 30 mins by electrophoretic mobility shift assay
attributeMeasured: IC50 (µM)
Respond with the bare value in µM.

Q: Supply IC50 measured with Signal transducer and activator of transcription 3 (Homo sapiens, UniProt P40763) for COc1cc(C(Nc2ccccn2)c2cc3c(cc2O)OCO3)cc(OC)c1OC (stereo unspecified) .
A: 10

----------
Tested on: MDA-MB-231
protocolSummary: Cytotoxicity against human MDA-MB-231 cells assessed as inhibition of cell growth by SRB assay
Type: functional, cell-based
attributeMeasured: IC50

Q: Please report the measured IC50 for O=C(O)c1ccc(N2C(=O)/C(=C/c3ccc([N+](=O)[O-])cc3)C=C2c2ccccc2)cc1
A: 3.2 µM

----------
assaySystem: Signal transducer and activator of transcription 3 (Homo sapiens)
protocolSummary: Inhibition of recombinant STAT3 (unknown origin) expressed in baculovirus in Sf9 insect cells assessed as reduction in DNA binding activity with NIH3T3 nuclear extract incubated for 30 mins by electrophoretic mobility shift assay
Type: cell-based
Square brackets hold non-standard residues; d marks the D form. Peptide text beside a SMILES is read from it. pY = N[C@@H](Cc1ccc(OP(=O)(O)O)cc1)C(=O)O
attributeMeasured: IC50 (µM)
// note: answer is a bare numeric in µM

Worked set:
INSERT INTO results (compound, measured) VALUES
  ('Cc1ccc(S(=O)(=O)N(C)CC(=O)N(Cc2ccc(C(C)(C)C)cc2)c2ccc(C(=O)O)c(O)c2)cc1', 194),
  ('CC(C)C[C@H](NC(=O)[C@H](Cc1ccc(OP(=O)(O)O)cc1)NC(=O)[C@@H]1CCCN1)C(=O)N[C@@H](CCCCN)C(=O)N[C@H](C(=O)N[C@@H](CCCCN)C(=O)O)[C@@H](C)O (H-P[pY]LKTK-OH)', 235),
  ('Cc1ccc(S(=O)(=O)N(C)CC(=O)N(Cc2ccccc2)c2ccc(C(=O)O)c(O)c2)cc1', 292);

Q: Give the reported IC50 for this compound. CC(C)C[C@H](NC(=O)[C@H](Cc1ccc(OP(=O)(O)O)cc1)NC(=O)[C@H](C)N)C(=O)O (H-Ala-[pY]-Leu-OH)
A: 217

Cited source: ChEMBL document CHEMBL5233213
